- test: Kinetic solubility in water and bio-relevant media (SGF, FaSSIF, FeSSIF) at RT
- Format: physicochemical
- test-parameters: Water, RT, 1 hr
Provide the recorded S: Solubility for the entries that follow.
One number for each entry, in µg/mL.

[
  {
    "molecule": "CCOCc1nc2c(N)nc3ccccc3c2n1CC(C)(C)O [Maleate Type A, resiquimod]",
    "reported-property": "S: Solubility",
    "value-reported": 930
  },
  {
    "molecule": "CCOCc1nc2c(N)nc3ccccc3c2n1CC(C)(C)O [Adipate Type A, resiquimod]",
    "reported-property": "S: Solubility",
    "value-reported": 2800
  }
]

Now consider the entry below.
Query: Specify reported S: Solubility for the molecule shown: CCOCc1nc2c(N)nc3ccccc3c2n1CC(C)(C)O [Freebase Type A]
Reply: 500

###

- test: Kinetic solubility in water and bio-relevant media (SGF, FaSSIF, FeSSIF) at RT
- Assay type: physicochemical
- test-parameters: FaSSIF, RT, 24 hrs
Where a name gives a salt, the structure may show the parent alone. Marks after values point to notes of the source that are not given here.
reported-property: S: Solubility

Look over these answered cases.
[
  {
    "compound": "CCOCc1nc2c(N)nc3ccccc3c2n1CC(C)(C)O [Malate Type A, resiquimod]",
    "value-reported": "3.7* mg/mL"
  },
  {
    "compound": "CCOCc1nc2c(N)nc3ccccc3c2n1CC(C)(C)O [Adipate Type A, resiquimod]",
    "value-reported": "4.5* mg/mL"
  },
  {
    "compound": "CCOCc1nc2c(N)nc3ccccc3c2n1CC(C)(C)O [Sulfate Type A, resiquimod]",
    "value-reported": "4.0* mg/mL"
  },
  {
    "compound": "CCOCc1nc2c(N)nc3ccccc3c2n1CC(C)(C)O [Freebase Type A]",
    "value-reported": "2.9 mg/mL"
  },
  {
    "compound": "CCOCc1nc2c(N)nc3ccccc3c2n1CC(C)(C)O [Maleate Type A, resiquimod]",
    "value-reported": "2.3 mg/mL"
  }
]

Could I get S: Solubility for every one of these entries?
1. CCOCc1nc2c(N)nc3ccccc3c2n1CC(C)(C)O [Di-HCl salt Type A, resiquimod]
2. CCOCc1nc2c(N)nc3ccccc3c2n1CC(C)(C)O [Phosphate Type A, resiquimod]

Reply:
1: 3.9* mg/mL; 2: 4.3* mg/mL

###

- test: Kinetic solubility in water and bio-relevant media (SGF, FaSSIF, FeSSIF) at RT
- Assay type: physicochemical
- test-parameters: SGF, RT, 4 hrs
Counter-ions that a name gives are not always drawn.
reported-property: S: Solubility

[
  {
    "compound": "CCOCc1nc2c(N)nc3ccccc3c2n1CC(C)(C)O [Malate Type A, resiquimod]",
    "reported-property": "S: Solubility",
    "value-reported": "C (C: Clear)"
  },
  {
    "compound": "CCOCc1nc2c(N)nc3ccccc3c2n1CC(C)(C)O [Adipate Type A, resiquimod]",
    "reported-property": "S: Solubility",
    "value-reported": "C (C: Clear)"
  },
  {
    "compound": "CCOCc1nc2c(N)nc3ccccc3c2n1CC(C)(C)O [Sulfate Type A, resiquimod]",
    "reported-property": "S: Solubility",
    "value-reported": "C (C: Clear)"
  },
  {
    "compound": "CCOCc1nc2c(N)nc3ccccc3c2n1CC(C)(C)O [Freebase Type A]",
    "reported-property": "S: Solubility",
    "value-reported": "5000 µg/mL"
  }
]

Could I get S: Solubility for every one of these entries?
1. CCOCc1nc2c(N)nc3ccccc3c2n1CC(C)(C)O [Maleate Type A, resiquimod]
2. CCOCc1nc2c(N)nc3ccccc3c2n1CC(C)(C)O [Di-HCl salt Type A, resiquimod]
3. CCOCc1nc2c(N)nc3ccccc3c2n1CC(C)(C)O [Phosphate Type A, resiquimod]

Reply:
1: 1600 µg/mL; 2: C (C: Clear); 3: C (C: Clear)

Query: Specify reported S: Solubility for the compound shown: CCOCc1nc2c(N)nc3ccccc3c2n1CC(C)(C)O [Mono-HCl salt Type A, resiquimod]
Reply: C (C: Clear)
